// data source = paper PMC3377097

biological target: murine QC (Mus musculus, UniProt Q9CYK2)
Sequence (Q9CYK2 36-362): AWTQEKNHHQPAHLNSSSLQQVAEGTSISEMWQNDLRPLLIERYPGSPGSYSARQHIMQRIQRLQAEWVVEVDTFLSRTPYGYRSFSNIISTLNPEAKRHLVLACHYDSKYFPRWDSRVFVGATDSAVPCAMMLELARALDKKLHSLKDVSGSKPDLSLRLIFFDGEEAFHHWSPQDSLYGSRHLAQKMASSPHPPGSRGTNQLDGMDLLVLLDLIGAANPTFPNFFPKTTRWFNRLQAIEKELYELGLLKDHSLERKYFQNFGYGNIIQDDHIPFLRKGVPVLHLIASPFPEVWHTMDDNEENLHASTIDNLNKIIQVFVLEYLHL
MEASUREMENT_LABEL: Ki (nM)
Give bare numbers, in nM.

The compound listed as COc1ccc(NC(=S)NCCCn2ccnc2)cc1OC has a reported Ki of 170
